- RUN_CONDITIONS: in water, 308.15 K
READOUT_NAME: solubility (mole fraction)
Numbers only.

Req: # query: solubility (mole fraction) of entry Nc1nc(N)c2nc(-c3ccccc3)c(N)nc2n1
Resp: 2.64e-06

----------
- RUN_CONDITIONS: in 2-methoxyethanol, 298.15 K
READOUT_NAME: solubility (mole fraction)

Req: # query: solubility (mole fraction) of entry Nc1nc(N)c2nc(-c3ccccc3)c(N)nc2n1
Resp: 0.00454

----------
- RUN_CONDITIONS: in n-propanol, 323.15 K
READOUT_NAME: solubility (mole fraction)
Numbers only.

Req: # query: solubility (mole fraction) of entry Nc1nc(N)c2nc(-c3ccccc3)c(N)nc2n1
Resp: 7.03e-05

----------
- RUN_CONDITIONS: in 2-methoxyethanol, 293.15 K
READOUT_NAME: solubility (mole fraction)
Give bare numbers.

Req: # query: solubility (mole fraction) of entry Nc1nc(N)c2nc(-c3ccccc3)c(N)nc2n1
Resp: 0.00338

----------
- RUN_CONDITIONS: in ethyl acetate, 308.15 K
READOUT_NAME: solubility (mole fraction)
Answers are plain numbers.

Req: # query: solubility (mole fraction) of entry Nc1nc(N)c2nc(-c3ccccc3)c(N)nc2n1
Resp: 1.95e-05

----------
- RUN_CONDITIONS: in n-methylformamide, 293.15 K
READOUT_NAME: solubility (mole fraction)

Req: # query: solubility (mole fraction) of entry Nc1nc(N)c2nc(-c3ccccc3)c(N)nc2n1
Resp: 0.00103

----------
- RUN_CONDITIONS: in water, 293.15 K
READOUT_NAME: solubility (mole fraction)
Answers are plain numbers.

Req: # query: solubility (mole fraction) of entry Nc1nc(N)c2nc(-c3ccccc3)c(N)nc2n1
Resp: 1.51e-06

----------
- RUN_CONDITIONS: in ethyl acetate, 313.15 K
READOUT_NAME: solubility (mole fraction)

Req: # query: solubility (mole fraction) of entry Nc1nc(N)c2nc(-c3ccccc3)c(N)nc2n1
Resp: 2.8e-05

----------
- RUN_CONDITIONS: in isopropanol, 303.15 K
READOUT_NAME: solubility (mole fraction)
Numbers only.

Req: # query: solubility (mole fraction) of entry Nc1nc(N)c2nc(-c3ccccc3)c(N)nc2n1
Resp: 1.06e-05

----------
- RUN_CONDITIONS: in acetonitrile, 323.15 K
READOUT_NAME: solubility (mole fraction)
One number for each entry.

Req: # query: solubility (mole fraction) of entry Nc1nc(N)c2nc(-c3ccccc3)c(N)nc2n1
Resp: 4.99e-05

----------
- RUN_CONDITIONS: in isobutanol, 293.15 K
READOUT_NAME: solubility (mole fraction)
Numbers only.

Req: # query: solubility (mole fraction) of entry Nc1nc(N)c2nc(-c3ccccc3)c(N)nc2n1
Resp: 6.12e-06

----------
- RUN_CONDITIONS: in isobutanol, 318.15 K
READOUT_NAME: solubility (mole fraction)
Answers are plain numbers.

Req: # query: solubility (mole fraction) of entry Nc1nc(N)c2nc(-c3ccccc3)c(N)nc2n1
Resp: 3.79e-05

----------
- RUN_CONDITIONS: in isopropanol, 288.15 K
READOUT_NAME: solubility (mole fraction)
Numbers only.

Req: # query: solubility (mole fraction) of entry Nc1nc(N)c2nc(-c3ccccc3)c(N)nc2n1
Resp: 3.53e-06

Origin of measurements: BigSolDB 2.1
